# tested_system: ERα (Homo sapiens)
# Sequence (P03372 1-595): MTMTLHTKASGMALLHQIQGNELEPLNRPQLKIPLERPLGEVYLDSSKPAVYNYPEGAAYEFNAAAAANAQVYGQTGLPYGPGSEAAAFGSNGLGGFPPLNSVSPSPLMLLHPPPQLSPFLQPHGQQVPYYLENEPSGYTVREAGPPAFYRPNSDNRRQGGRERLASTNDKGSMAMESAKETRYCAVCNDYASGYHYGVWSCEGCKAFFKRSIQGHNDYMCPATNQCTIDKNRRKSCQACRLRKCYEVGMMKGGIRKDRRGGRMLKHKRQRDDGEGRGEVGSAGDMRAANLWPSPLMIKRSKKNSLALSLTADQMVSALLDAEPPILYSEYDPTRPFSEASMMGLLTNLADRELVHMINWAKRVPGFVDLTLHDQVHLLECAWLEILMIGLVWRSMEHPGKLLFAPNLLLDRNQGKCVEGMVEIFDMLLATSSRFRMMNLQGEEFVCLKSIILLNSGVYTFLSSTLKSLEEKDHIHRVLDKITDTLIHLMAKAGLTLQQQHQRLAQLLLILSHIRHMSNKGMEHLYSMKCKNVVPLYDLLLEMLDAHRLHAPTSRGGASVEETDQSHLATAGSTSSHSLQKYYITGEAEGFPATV
# assay_overview: Phage ELISA / fingerprint on ER immobilized on biotinylated ERE (Examples 2.3-2.5)
# Format: binding
# Parameters: purchased PanVera Corporation, Madison, WI; key: semiquantitative scale of 0 to 7+; 1+: semiquantitative scale of 0 to 7+; 2+: semiquantitative scale of 0 to 7+; 3+: semiquantitative scale of 0 to 7+; 4+: semiquantitative scale of 0 to 7+; 5+: semiquantitative scale of 0 to 7+; 6+: semiquantitative scale of 0 to 7+; semiquantitative scale of 0 to 7+
# stated_conditions: ERα and buffer
Listing of entries alongside the reported binding activity, ERα and buffer.

The reported binding activity, ERα and buffer of the sequence SSGLPPNFERMLKSR [Peptide 6b-β] was 5+

The reported binding activity, ERα and buffer of the sequence SSWPGAEWFKEQLSR [Peptide 20b-β] was 4+

The reported binding activity, ERα and buffer of the sequence SRSPILWHLLQDGSR [Peptide 10E-β] was 5+

Continuing:
The reported binding activity, ERα and buffer of the sequence SSWPNPTFWERQLSR [Peptide 3b-β] was 5+

The reported binding activity, ERα and buffer of the sequence SSTRLMCWLGSADTSHCSR [Peptide 28E-β] was 4+

The reported binding activity, ERα and buffer of the sequence SYSKEWFEERLNSR [Peptide 4b-β] was 4+

Attribution: patent EP1073891B1
